Data provenance: patent US10329304B2

target: PDE4D (Homo sapiens, UniProt Q08499); experiment: PDE4 inhibition assay (PDE4D IC50); assay type: biochemical; settings: read-out: PDE4D IC50
Sequence (Q08499 1-673 isoform Q08499-2): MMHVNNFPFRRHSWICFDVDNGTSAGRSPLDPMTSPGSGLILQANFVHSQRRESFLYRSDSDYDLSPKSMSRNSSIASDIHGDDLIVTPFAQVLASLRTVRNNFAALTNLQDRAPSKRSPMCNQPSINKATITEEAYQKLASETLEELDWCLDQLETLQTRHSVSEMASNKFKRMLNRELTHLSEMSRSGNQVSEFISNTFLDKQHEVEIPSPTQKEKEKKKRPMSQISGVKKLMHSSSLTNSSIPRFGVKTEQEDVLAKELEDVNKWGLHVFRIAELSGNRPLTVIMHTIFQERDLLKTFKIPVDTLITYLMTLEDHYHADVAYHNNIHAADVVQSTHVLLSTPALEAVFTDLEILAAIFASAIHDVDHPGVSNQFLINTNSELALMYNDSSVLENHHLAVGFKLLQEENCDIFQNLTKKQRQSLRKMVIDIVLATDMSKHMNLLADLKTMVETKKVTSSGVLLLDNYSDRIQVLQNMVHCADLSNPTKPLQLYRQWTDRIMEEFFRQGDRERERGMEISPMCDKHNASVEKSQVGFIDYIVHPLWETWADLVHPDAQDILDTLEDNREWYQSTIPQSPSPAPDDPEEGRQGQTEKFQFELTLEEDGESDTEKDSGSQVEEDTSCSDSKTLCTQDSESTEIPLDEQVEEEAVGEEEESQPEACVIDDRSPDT
As shown below, each of these molecules has a reported IC50 value.
Could you give me the number in µM? Just the number is fine.

Form: molecule = C=C(C)Cn1c(SCC(=O)c2ccncc2)nc2sc3c(c2c1=O)CCCC3 [JEH-3-048-1] ; IC50 = 16

Okay, now this molecule:
Summary for this molecule, C=C(C)Cn1c(SCC(=O)c2ccccn2)nc2sc3c(c2c1=O)CCCC3 [JEH-3-063] : IC50 is 4.9

----------
Recorded LipE for the following compounds
test: Lipophilic efficiency (LipE = pEC50 − cLogP) and cLogP; settings: Calculated as pEC50 - cLogP, Molinspiration Cheminformatics
Lab note: jot down the number only; don't add units.

Record summary for CN(C)c1ccccc1CN1CCCN(Cc2ccccc2N(C)C)C1c1ccncc1 [GANT-61, reference compound] : reported LipE = 1.34

Field LipE (entry `O=C(CSc1nc2sc3c(c2c(=O)n1C1CC1)CCCC3)c1cccs1` ) reads 1.40

The reported LipE of the compound C=C(C)Cn1c(SCC(=O)c2cccs2)nc2sc3c(c2c1=O)CCNC3 [Formula 10a] was 1.45

The compound `C=C(C)Cn1c(SCC(=O)c2ccccc2)nc2sc3c(c2c1=O)CCCC3` showed LipE equal to −0.01

Sample Cc1c(C(=O)Nc2ccc(N3C[C@@H](C)O[C@@H](C)C3)nc2)cccc1-c1ccc(OC(F)(F)F)cc1 [Sonidegib, reference compound] ; LipE observed: 3.02

Next:
Sure, the documented LipE for C=C(C)Cn1c(SCC(=O)N2CCCCC2C)nc2sc3c(c2c1=O)CCCC3 (stereo not drawn) is 0.94

The compound listed as `CCCn1c(SCC(=O)c2cccs2)nc2sc3c(c2c1=O)CCCC3` has a reported LipE of 1.06

Recorded result, CS(=O)(=O)c1ccc(C(=O)Nc2ccc(Cl)c(-c3ccccn3)c2)c(Cl)c1 [Vismodegib, reference compound] , LipE: 4.33

# LipE (compound: `C=C(C)Cn1c(SCC(=O)c2cccs2)nc2sc3c(c2c1=O)CCCC3` ) is 0.73
